STUDY TARGET: TDP-43 (Homo sapiens, UniProt Q13148 1-414)
Sequence (Q13148 whole entry): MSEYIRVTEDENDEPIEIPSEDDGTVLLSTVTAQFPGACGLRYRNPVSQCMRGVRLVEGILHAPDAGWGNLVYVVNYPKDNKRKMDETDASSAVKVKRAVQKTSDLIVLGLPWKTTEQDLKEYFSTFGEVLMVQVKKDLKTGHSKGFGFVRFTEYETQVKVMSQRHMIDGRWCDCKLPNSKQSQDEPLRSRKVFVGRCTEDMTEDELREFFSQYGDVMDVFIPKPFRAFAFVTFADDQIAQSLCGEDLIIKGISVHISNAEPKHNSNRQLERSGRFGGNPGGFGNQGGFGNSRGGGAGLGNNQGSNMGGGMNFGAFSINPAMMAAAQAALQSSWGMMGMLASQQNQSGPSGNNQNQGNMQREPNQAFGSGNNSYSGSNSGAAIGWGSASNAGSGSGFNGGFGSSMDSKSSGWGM
ASSAY NAME: RNA Bind-n-Seq with designed 260-mer pool; 25 mM Tris-HCl, 150 mM KCl, 3 mM MgCl2, BSA (printed 500 mg/mL), 20 units/mL SUPERase IN; pH not stated; 500 nM RNA pool, 1 h, 4 C; TDP-43 5, 50, 500 nM; high values mean tight binding
COND: protein: recombinant; tags: SBP (GST cleaved off with PreScission; pGEX-GST-SBP)
The full ranking holds about 9,900 sequences; the median of “r (bound/input frequency ratio)” is about 0.7, and the highest 2% start at about 6.5. The list comes from a sample in which the highest values are over-represented; it also holds close analogues and randomly drawn sequences.

BINDER	binding signal
ENSMUSG00000029636.444|Wasf3 (ssRNA) RNA: GGGAGUUCUACAGUCCGACGAUCGCUUCGAUAUCCGCAUGCUAGGAUUCAUGAUGGAUGGAUGGAUGGAUGGAUGGAUGGAUGGAUGGAUGAGUGGAUGGAUAAUAGGUUGAUGGGUGGAUAGGUAGAUGAGUGAAUAGAUAGAUAUAGAUCAGUGGGAGGAUUGGAAAGUAGGUGAAUGAAUGGAUGGCAGAUAGAUGGAUCAAUUACAGAUGGAUGGAUGCAUGGAAUAGAUAGGUGGAUGGGUGGUGGCUAGAAGGUGCCUGAGUCUGCACAUCACUGCACUGAGAAGGCAAAUGAGUACCUCUUGCGGUCGCACUAGUGUGGAAUUCUCGGGUGUCAAGG	4.6 R (bound/input frequency ratio)
ENSMUSG00000029636.442|Wasf3 (ssRNA) RNA: GGGAGUUCUACAGUCCGACGAUCGCUUCGAUAUCCGCAUGCUAGGUUGAGUGGGUGGAUUCAUGAUGGAUGGAUGGAUGGAUGGAUGGAUGGAUGGAUGGAUGAGUGGAUGGAUAAUAGGUUGAUGGGUGGAUAGGUAGAUGAGUGAAUAGAUAGAUAUAGAUCAGUGGGAGGAUUGGAAAGUAGGUGAAUGAAUGGAUGGCAGAUAGAUGGAUCAAUUACAGAUGGAUGGAUGCAUGGAAUAGAUAGGUGGAUGGGUGGUGGCUAGAAGGUGCCUGAGUCUGCACAUCACUGCACUGAGAAGCUCUUGCGGUCGCACUAGUGUGGAAUUCUCGGGUGUCAAGG	5.86 R (bound/input frequency ratio)
ENSMUSG00000022095.275|Fam160b2|1:15;62:66;198:203 (ssRNA) RNA: GGGAGUUCUACAGUCCGACGAUCGCUUCGAUAUCCGCAUGCUACACACACACACACACAGAGAGAGAGAGAGAGAGAGAGAGCUGUGAGUACACAUGGGUGCUGCACACGGACAGGAGCAGAUCUUGGUGGAGUGGGUCUACACUUGAGAUUUGUACUCGUUUGAGAGGCUGGGCAAUACUCAAUGCACUUUGGCAUUUGCAUGGUGUCUUCACAACAGCACAGCAAUAAACAUUGUGAUACACACGACAUGCUGACUCUCCCCAGUCUGCUUUUCUUUUCCCCAAGCUUUUCUGCCCCUGUACUCUUGCGGUCGCACUAGUGUGGAAUUCUCGGGUGUCAAGG	2.5 R (bound/input frequency ratio)
ENSMUSG00000029636.450|Wasf3 (ssRNA) RNA: GGGAGUUCUACAGUCCGACGAUCGCUUCGAUAUCCGCAUGCUAGAUGGAUGGAUGAGUGGAUGGAUAAUAGGUUGAUGGGUGGAUAGGUAGAUGAGUGAAUAGAUAGAUAUAGAUCAGUGGGAGGAUUGGAAAGUAGGUGAAUGAAUGGAUGGCAGAUAGAUGGAUCAAUUACAGAUGGAUGGAUGCAUGGAAUAGAUAGGUGGAUGGGUGGUGGCUAGAAGGUGCCUGAGUCUGCACAUCACUGCACUGAGAAGGCAAAUGAGUACAUUAUACUAUUAGCACCAAACCCCAAGCUUCAGUAUCUCUUGCGGUCGCACUAGUGUGGAAUUCUCGGGUGUCAAGG	6.13 R (bound/input frequency ratio)
ENSMUSG00000029636.443|Wasf3 (ssRNA) RNA: GGGAGUUCUACAGUCCGACGAUCGCUUCGAUAUCCGCAUGCUAGUGGGUGGAUUCAUGAUGGAUGGAUGGAUGGAUGGAUGGAUGGAUGGAUGGAUGAGUGGAUGGAUAAUAGGUUGAUGGGUGGAUAGGUAGAUGAGUGAAUAGAUAGAUAUAGAUCAGUGGGAGGAUUGGAAAGUAGGUGAAUGAAUGGAUGGCAGAUAGAUGGAUCAAUUACAGAUGGAUGGAUGCAUGGAAUAGAUAGGUGGAUGGGUGGUGGCUAGAAGGUGCCUGAGUCUGCACAUCACUGCACUGAGAAGGCAAAUCUCUUGCGGUCGCACUAGUGUGGAAUUCUCGGGUGUCAAGG	5.07 R (bound/input frequency ratio)
ENSMUSG00000022095.20|Fam160b2 (ssRNA) RNA: GGGAGUUCUACAGUCCGACGAUCGCUUCGAUAUCCGCAUGCUAGGUGGGGGAAGAUUCCUGCCUGUGUACUUCUGCCCACGGGCAGUCUCCUGCCUGGCCAUGCUGCCACUCUGUCCUCCAUGCCGGGGACUUCAGCUGCAGGACACCUCACCUGUUGACCCCACGAGCUGAGGUUUCAAGGAGGUGCUGGCUCCUAAGGCAGUGGUAUUCUUGGAGCCUUUUAGAGGAGCUAGAGGAUGGCCAGUGAGCGCCUAGAUGCUGCCCUGCAUGUGUUGCGUGACUAUCUCUGCUAUAUUGUGACCCUCUUGCGGUCGCACUAGUGUGGAAUUCUCGGGUGUCAAGG	0.487 R (bound/input frequency ratio)
ENSMUSG00000029636.441|Wasf3 (ssRNA) RNA: GGGAGUUCUACAGUCCGACGAUCGCUUCGAUAUCCGCAUGCUAGUGGAUGGUUGAGUGGGUGGAUUCAUGAUGGAUGGAUGGAUGGAUGGAUGGAUGGAUGGAUGGAUGAGUGGAUGGAUAAUAGGUUGAUGGGUGGAUAGGUAGAUGAGUGAAUAGAUAGAUAUAGAUCAGUGGGAGGAUUGGAAAGUAGGUGAAUGAAUGGAUGGCAGAUAGAUGGAUCAAUUACAGAUGGAUGGAUGCAUGGAAUAGAUAGGUGGAUGGGUGGUGGCUAGAAGGUGCCUGAGUCUGCACAUCACUGCACUCUCUUGCGGUCGCACUAGUGUGGAAUUCUCGGGUGUCAAGG	7.11 R (bound/input frequency ratio)
